targetOrSystem: KRAS G12V (Homo sapiens, UniProt P01116, G12V)
Sequence (P01116 1-188 isoform P01116-2 G12V): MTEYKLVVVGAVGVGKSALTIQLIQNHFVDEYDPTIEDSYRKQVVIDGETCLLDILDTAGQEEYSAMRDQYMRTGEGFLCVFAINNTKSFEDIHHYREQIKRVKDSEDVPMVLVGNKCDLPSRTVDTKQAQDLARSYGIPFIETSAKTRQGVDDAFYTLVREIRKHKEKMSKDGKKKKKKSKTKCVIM
testMethodNotes: biochemical
pIC50: −log10 of the molar value.
measuredMetric: pIC50

CCc1c(F)ccc2cc(O)cc(-c3nc4c5c(nc(OC[C@@]67CCCN6C[C@H](F)C7)nc5c3F)N(C)[C@@H](CC)CO4)c12 : 8.99
C#Cc1c(F)ccc2cc(O)cc(-c3nc4c5c(nc(OC[C@@]67CCCN6C[C@H](F)C7)nc5c3F)N(C)C3(CC3)CO4)c12 : 8.81
C#Cc1c(F)ccc2cc(O)cc(-c3nc4c5c(nc(OC[C@@]67CCCN6C[C@H](F)C7)nc5c3F)N3CCC[C@H](O)[C@@H]3CO4)c12 : 7.80
C#Cc1c(F)ccc2cc(O)cc(-c3nc4c5c(nc(OC[C@@]67CCCN6C[C@H](F)C7)nc5c3F)N(C)[C@@H](CC)CO4)c12 : 8.61
CCc1c(F)ccc2cc(O)cc(-c3nc4c5c(nc(OC[C@@]67CCCN6C[C@H](F)C7)nc5c3F)N3CCCC(O)C3CO4)c12 (stereo partly drawn) : 8.67
C#Cc1c(F)ccc2cc(O)cc(-c3nc4c5c(nc(OC[C@@]67CCCN6C[C@H](F)C7)nc5c3F)N(Cc3ccccc3)[C@@H](C)CO4)c12 : 8.55

----------
targetOrSystem: KRAS G12D (Homo sapiens, UniProt P01116, G12D)
Sequence (P01116 1-188 isoform P01116-2 G12D): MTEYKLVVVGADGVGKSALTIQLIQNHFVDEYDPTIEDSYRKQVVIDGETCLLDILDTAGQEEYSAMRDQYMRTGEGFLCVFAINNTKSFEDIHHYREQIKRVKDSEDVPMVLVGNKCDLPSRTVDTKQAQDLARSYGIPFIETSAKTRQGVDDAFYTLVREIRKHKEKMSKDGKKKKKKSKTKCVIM
testMethodNotes: biochemical
pIC50: −log10 of the molar value.
measuredMetric: pIC50

C#Cc1c(F)ccc2cc(O)cc(-c3nc4c5c(nc(OC[C@@]67CCCN6C[C@H](F)C7)nc5c3F)N3C[C@H](C#N)CC[C@H]3CO4)c12 : 7.28
CCc1c(F)ccc2cc(O)cc(-c3nc4c5c(nc(OC[C@@]67CCCN6C[C@H](F)C7)nc5c3F)N3CCC[C@@](C)(O)[C@H]3CO4)c12 : 8.78
C#Cc1c(F)ccc2cc(O)cc(-c3nc4c5c(nc(OC[C@@]67CCCN6C[C@H](F)C7)nc5c3F)N(Cc3ccccc3)[C@@H](C)CO4)c12 : 8.40
C#Cc1c(F)ccc2cc(O)cc(-c3nc4c5c(nc(OC[C@@]67CCCN6C[C@H](F)C7)nc5c3F)NCCO4)c12 : 8.58
C#Cc1c(F)ccc2cc(O)cc(-c3nc4c5c(nc(OC[C@@]67CCCN6C[C@H](F)C7)nc5c3F)N(Cc3ccccc3)CCC4)c12 : 6.49
CC[C@H]1COc2nc(-c3cccc4sc(N)c(C#N)c34)c(F)c3nc(OC[C@@]45CCCN4C[C@H](F)C5)nc(c23)N1C : 7.85
C#Cc1c(F)ccc2cc(O)cc(-c3nc4c5c(nc(OC[C@@]67CCCN6C[C@H](F)C7)nc5c3F)N3CC(C#N)CCC3CO4)c12 (stereo partly drawn) : 7.80
Nc1nc2c(-c3nc4c5c(nc(OC[C@@]67CCCN6C[C@H](F)C7)nc5c3F)N3CCCC[C@H]3CO4)ccc(F)c2s1 : 7.52
CC[C@H]1COc2nc(-c3cc(O)cc4ccc(F)c(F)c34)c(F)c3nc(OC[C@@]45CCCN4C[C@H](F)C5)nc(c23)N1C : 8.58
CCc1c(F)ccc2cc(O)cc(-c3nc4c5c(nc(OC[C@@]67CCCN6C[C@H](F)C7)nc5c3F)N3CCCC[C@H]3C(C)O4)c12 (stereo partly drawn) : 8.75
Fc1c(-c2c(Cl)ccc3[nH]nc(Cl)c23)nc2c3c(nc(OC[C@@]45CCCN4C[C@H](F)C5)nc13)N1CCCC[C@H]1CO2 (atropisomer, axis not shown) [Example 83] : 7.22
C#Cc1c(F)ccc2cc(O)cc(-c3nc4c5c(nc(OC[C@@]67CCCN6C[C@H](F)C7)nc5c3F)N(C)[C@@H](C)CO4)c12 : 8.77
CCc1c(F)ccc2cc(O)cc(-c3nc4c5c(nc(OC[C@@]67CCCN6C[C@H](F)C7)nc5c3F)N(C)[C@@H](CC)CO4)c12 : 9.07
Cc1cc(N)nc(-c2nc3c4c(nc(OC[C@@]56CCCN5C[C@H](F)C6)nc4c2F)N2CCCC[C@H]2CO3)c1C(F)(F)F : 7.79
CCc1c(F)ccc2cc(O)cc(-c3nc4c5c(nc(OC[C@@]67CCCN6C[C@H](F)C7)nc5c3F)N3CCCC(O)C3CO4)c12 (stereo partly drawn) : 8.61
C#Cc1c(F)ccc2cc(O)cc(-c3nc4c5c(nc(OCC67CCCN6C/C(=C/F)C7)nc5c3F)N3CCCC[C@H]3CO4)c12 (stereo partly drawn) : 8.78
C#Cc1c(F)ccc2cc(O)cc(-c3nc4c5c(nc(OC[C@@]67CCCN6C[C@H](F)C7)nc5c3F)N3CCCCC3CC4)c12 (stereo partly drawn) : 8.76
C#Cc1c(F)ccc2cc(O)cc(-c3nc4c5c(nc(OC[C@@]67CCCN6C[C@H](F)C7)nc5c3F)N3CC=CC[C@H]3CO4)c12 : 8.49
C#Cc1c(F)ccc2cc(O)cc(-c3nc4c5c(nc(OC[C@@]67CCCN6C[C@H](F)C7)nc5c3F)N3CCCC(O4)C3CO)c12 (stereo partly drawn) : 8.12
CCc1c(F)ccc2cc(O)cc(-c3nc4c5c(nc(OC[C@@]67CCCN6C[C@H](F)C7)nc5c3F)N3CCCC[C@H]3CO4)c12 : 8.40
C#Cc1c(F)ccc2cc(O)cc(-c3nc4c5c(nc(OC[C@@]67CCCN6C[C@H](F)C7)nc5c3F)N(C)[C@@H](CC)CO4)c12 : 8.62
Fc1c(-c2c(Cl)ccc3[nH]nc(Cl)c23)nc2c3c(nc(OC[C@@]45CCCN4C[C@H](F)C5)nc13)N1CCCC[C@H]1CO2 (atropisomer, axis not shown) [Example 84] : 7.26
C#Cc1c(F)ccc2cc(O)cc(-c3nc4c5c(nc(OC[C@@]67CCCN6C[C@H](F)C7)nc5c3F)NCCC4)c12 : 7.83
CC[C@H]1COc2nc(-c3cc(O)cc4ccc(F)c(Cl)c34)c(F)c3nc(OC[C@@]45CCCN4C[C@H](F)C5)nc(c23)N1C : 8.89

----------
Collected IC50 values appear next to each entry.
Test system: Phospho-ERK in AGS (KRAS G12D) cells
testMethodNotes: Kinase phosphorylation assay (Phospho-ERK), AGS
Assay type: cell-based
setupConditions: 3 hours treatment, normalized to β-actin, read-out: pERK ½ IC50 (nM), AGS
Protocol: KRAS mutant cells were plated in clear bottom 96 well plates at a density of 50,000-120,000 cells per well. Cells were allowed to attach overnight and then treated with compounds for 3 hours. […] Phospho-ERK signal was normalized to β-actin signal for each well and the percent of DMSO control values were calculated. IC50 values were calculated using the sigmoidal dose-response (variable slope) equation in GraphPad Prism 4.
measuredMetric: IC50

C#Cc1c(F)ccc2cc(O)cc(-c3nc4c5c(nc(OC[C@@]67CCCN6C[C@H](F)C7)nc5c3F)N3CCCC[C@H]3CO4)c12 : 3.46 nM
CCc1c(F)ccc2cc(O)cc(-c3nc4c5c(nc(OC[C@@]67CCCN6C[C@H](F)C7)nc5c3F)N3CCCC[C@H]3CO4)c12 : 19.6 nM

----------
System: AGS (G12D)
testMethodNotes: Cell proliferation assay (CellTiter-Glo, 72 hours), AGS
Assay type: cell-based
setupConditions: 384-well, CellTiter-Glo 2.0
pIC50: −log10 of the molar value.
measuredMetric: pIC50

C#Cc1c(F)ccc2cc(O)cc(-c3nc4c5c(nc(OC[C@@]67CCCN6C/C(=C\F)C7)nc5c3F)N3CCCC[C@H]3CO4)c12 [Example 76] : 7.91

----------
System: AGS (G12D)
testMethodNotes: Cell proliferation assay (CellTiter-Glo, 72 hours), AGS
Format: cell-based
setupConditions: 72 h, 384-well, CellTiter-Glo 2.0
pIC50: −log10 of the molar value.
measuredMetric: pIC50

C#Cc1c(F)ccc2cc(O)cc(-c3nc4c5c(nc(OC[C@@]67CCCN6C[C@H](F)C7)nc5c3F)N(CC)CCO4)c12 : 7.37
C#Cc1c(F)ccc2cc(O)cc(-c3nc4c5c(nc(OC[C@@]67CCCN6C[C@H](F)C7)nc5c3F)N3C[C@H](O)CC[C@@H]3CO4)c12 : 6.88

----------
targetOrSystem: KRAS G12V (Homo sapiens, UniProt P01116, G12V)
testMethodNotes: biochemical
pIC50: −log10 of the molar value.
measuredMetric: pIC50

CC[C@H]1COc2nc(-c3cc(O)cc4ccc(F)c(F)c34)c(F)c3nc(OC[C@@]45CCCN4C[C@H](F)C5)nc(c23)N1C : 8.62
Fc1c(-c2c(Cl)ccc3[nH]nc(Cl)c23)nc2c3c(nc(OC[C@@]45CCCN4C[C@H](F)C5)nc13)N1CCCC[C@H]1CO2 (atropisomer, axis not shown) [Example 83] : 7.23
C#Cc1c(F)ccc2cc(O)cc(-c3nc4c5c(nc(OC[C@@]67CCCN6C[C@H](F)C7)nc5c3F)NCCO4)c12 : 8.55
C#Cc1c(F)ccc2cc(O)cc(-c3nc4c5c(nc(OC[C@@]67CCCN6C[C@H](F)C7)nc5c3F)N3CCCCC3CC4)c12 (some centres unmarked) : 8.70
C#Cc1c(F)ccc2cc(O)cc(-c3nc4c5c(nc(OC[C@@]67CCCN6C[C@H](F)C7)nc5c3F)NCCC4)c12 : 7.77
C#Cc1c(F)ccc2cc(O)cc(-c3nc4c5c(nc(OC[C@@]67CCCN6C[C@H](F)C7)nc5c3F)N(C)[C@@H](C)CO4)c12 : 8.70
N#Cc1c(N)sc2c(F)ccc(-c3nc4c5c(nc(OC[C@@]67CCCN6C[C@H](F)C7)nc5c3F)N3CCCC[C@H]3CO4)c12 : 8.66
Nc1nc2c(-c3nc4c5c(nc(OC[C@@]67CCCN6C[C@H](F)C7)nc5c3F)N3CCCC[C@H]3CO4)ccc(F)c2s1 : 7.55
C#Cc1c(F)ccc2cc(O)cc(-c3nc4c5c(nc(OCC67CCCN6C/C(=C/F)C7)nc5c3F)N3CCCC[C@H]3CO4)c12 (some centres unmarked) : 8.77
C#Cc1c(F)ccc2cc(O)cc(-c3nc4c5c(nc(OC[C@@]67CCCN6C[C@H](F)C7)nc5c3F)N3CCCC(O4)C3CO)c12 (some centres unmarked) : 8.05
CCc1c(F)ccc2cc(O)cc(-c3nc4c5c(nc(OC[C@@]67CCCN6C[C@H](F)C7)nc5c3F)N3CCCC[C@H]3CO4)c12 : 8.74
C#Cc1c(F)ccc2cc(O)cc(-c3nc4c5c(nc(OC[C@@]67CCCN6C[C@H](F)C7)nc5c3F)N3[C@@H](COC[C@@H]3C)CO4)c12 : 8.51
C#Cc1c(F)ccc2cc(O)cc(-c3nc4c5c(nc(OC[C@@]67CCCN6C/C(=C\F)C7)nc5c3F)N3CCCC[C@H]3CO4)c12 : 8.65
